assay: Unbound fraction in plasma
Type: in vitro ADME, human
reported.conditions: human, plasma, oral, 50 mg, fu,av, hepatic impairment study, healthy subjects; median (min-max)
quantity.kind: fraction unbound
Answers are plain numbers.

IN: Supply recorded fraction unbound for Cn1cnc2c(F)c(Nc3ccc(Br)cc3Cl)c(C(=O)NOCCO)cc21 [Selumetinib] here.
OUT: 0.0035

###

Format: in vivo, human
reported.conditions: human, plasma, oral, 50 mg, tmax, healthy subjects; median (min-max)
quantity.kind: tmax (h)
Answers are plain numbers, in h.

IN: Supply recorded tmax for Cn1cnc2c(F)c(Nc3ccc(Br)cc3Cl)c(C(=O)NOCCO)cc21 here.
OUT: 1

###

assay: Unbound fraction in plasma
Format: in vitro ADME, human
reported.conditions: human, plasma, oral, 50 mg, fu,av, hepatic impairment study, mild impairment; median (min-max)
quantity.kind: fraction unbound
Numbers only.

IN: Supply recorded fraction unbound for Cn1cnc2c(F)c(Nc3ccc(Br)cc3Cl)c(C(=O)NOCCO)cc21 [Selumetinib] here.
OUT: 0.0028
